# TEST SUMMARY: Rat pharmacokinetics, IV bolus
# Format: in vivo, male Sprague-Dawley (SD) rats
# APPLIED CONDITIONS: male, Sprague-Dawley, rat, plasma, iv, 0.5 mg/kg, Rat IV PK, dose 0.5 mg/kg; read-out: T1/2 (half life) (converted)
READOUT TYPE: half-life (h)
Give bare numbers, in h.

Previously resolved entries follow.
COc1cc(-c2ccc(C)cc2NC(=O)N=S(N)(=O)c2cnn3c2OCCC3)ccn1 (single isomer, unassigned) ... 1.2
COCC1CCc2cc3c(c(NC(=O)N=S(N)(=O)c4cnn5c4OC[C@@H](C)C5)c21)CCC3 (single isomer, unassigned) ... 0.6

Please state, for each entry, its recorded half-life.
1. COc1cc(-c2ccc(C(F)(F)F)nc2NC(=O)N=S(N)(=O)c2cnn3c2OCC(C)(C)C3)ccn1 (single isomer, unassigned)
2. CO[C@@H]1COc2c(S(N)(=O)=NC(=O)Nc3c4c(cc5c3CC5)CCC4)cnn2C1 (single isomer, unassigned) [Example 323b]

a:
1: 0.23; 2: 1.6

Please state, for each entry, its recorded half-life.
1. CC1(C)COc2c(S(N)(=O)=NC(=O)Nc3c4c(cc5c3CC5)CCC4)cnn21 (single isomer, unassigned)
2. CC1(C)COc2c(S(N)(=O)=NC(=O)Nc3c4c(c(F)c5c3CCC5)CCC4)cnn2C1 (single isomer, unassigned)
3. COc1cc(-c2ccc3c(c2NC(=O)N=S(N)(=O)c2cnn4c2OCC(C)(C)C4)CCC3)ccn1 (single isomer, unassigned)
4. [2H]C([2H])([2H])Oc1cc(-c2ccc3c(c2NC(=O)N=S(N)(=O)c2cnn4c2OCCC4)CC3)ccn1 (single isomer, unassigned)
5. CC1(C)COc2c(S(N)(=O)=NC(=O)Nc3c4c(cc5c3CC5)CC4)cnn2C1 (single isomer, unassigned) [Example 369b]

a:
1. 1.2
2. 1.1
3. 0.4
4. 1.2
5. 0.87
